Hey, just so you know, these numbers are from patent EP0774460A1.

# assayedTarget: 5-HT4 receptor (Cavia porcellus)
# Construct: crude synapse membrane sample was prepared from guinea pig striatum; from tissue; host or cells: guinea pig striatum, crude synaptic membranes
# procedureText: 5-HT4 receptor binding test
# Parameters: species or system guinea pig
# details: [3H]GR113808 0.1 nM, crude synapse membrane from guinea pig striatum, 37°C; read-out: Affinity for receptor (Ki value, nM) 5-HT4
reportedEndpoint: Ki (nM)

COc1cc(N)c(Cl)cc1C(=O)NCC1CCN(CCCCCNC(=O)c2ccccc2)CC1 [Example 29] = 1.7

[I] CCCNC(=O)NCCCCN1CCC(CNC(=O)c2cc(Cl)c(N)cc2OC)CC1 [Example 45]
[II] COc1cc(N)c(Cl)cc1C(=O)NCC1CCN(CCCNC(=O)c2ccc(C)cc2)C1 (stereo not drawn) [Example 17]
[III] COc1cc(N)c(Cl)cc1C(=O)NC[C@H]1CCN(CCCCNC(=O)c2cn(C)c3ccccc23)C1 [Example 85]
[IV] CCCNC(=O)NCCCCCN1CC[C@H](CNC(=O)c2cc(Cl)c(N)cc2OC)C1 [Example 46]
Please list these in order of increasing Ki. Thank you! Returns: the labels arranged in the requested order.
III, IV, II, I
(III: 0.44 nM, IV: 1.5 nM, II: 3.1 nM, I: 5.5 nM)

[I] COc1cc(N)c(Cl)cc1C(=O)NC[C@H]1CCN(CCCCCNC(=O)c2cn(C)c3ccccc23)C1 [Example 88]
[II] CCCNC(=O)NCCCCCN1CCC(CNC(=O)c2cc(Cl)c(N)cc2OC)CC1 [Example 48]
When I and II are compared, which has the higher number for Ki? Answer with the label corresponding to your selection.
II
(II: 2.1 nM, I: 1.2 nM)

---

# assayedTarget: 5-HT4 receptor (Cavia porcellus, UniProt O70528)
# Construct: crude synapse membrane sample was prepared from guinea pig striatum; from tissue; host or cells: guinea pig striatum, crude synaptic membranes
# Sequence (O70528 whole entry): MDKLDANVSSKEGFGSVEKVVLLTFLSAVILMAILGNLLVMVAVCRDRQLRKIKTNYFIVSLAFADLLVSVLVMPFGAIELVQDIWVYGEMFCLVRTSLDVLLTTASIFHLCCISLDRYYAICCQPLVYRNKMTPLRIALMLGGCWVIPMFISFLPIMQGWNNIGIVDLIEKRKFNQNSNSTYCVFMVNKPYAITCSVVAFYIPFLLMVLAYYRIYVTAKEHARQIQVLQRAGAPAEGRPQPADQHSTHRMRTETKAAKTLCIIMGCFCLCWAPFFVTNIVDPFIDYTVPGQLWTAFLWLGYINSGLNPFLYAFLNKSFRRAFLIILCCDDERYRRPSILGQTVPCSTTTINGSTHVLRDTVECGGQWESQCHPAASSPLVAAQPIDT
# procedureText: 5-HT4 receptor binding test
# Parameters: species or system guinea pig
# details: [3H]GR113808 0.1 nM, crude synapse membrane from guinea pig striatum, 37°C; read-out: Affinity for receptor (Ki value, nM) 5-HT4
reportedEndpoint: Ki (nM)

Illustrative cases are given below, each with its answer.
COc1cc(N)c(Cl)cc1C(=O)NCC1CCN(CCCCCN2C(=O)c3ccccc3C2=O)C1 (centres unmarked) = 7.4
COc1cc(N)c(Cl)cc1C(=O)NCC1CCN(CCCCNC(=O)c2cccc3ccccc23)CC1 = 1.6
COc1cc(N)c(Cl)cc1C(=O)NCC1CCN(CCCCCNC(=O)c2ccc(C)cc2)CC1 = 2.3

[A] COc1cc(N)c(Cl)cc1C(=O)NC[C@H]1CCN(CCCCCNC(=O)Nc2ccccc2)C1
[B] COc1cc(N)c(Cl)cc1C(=O)NC[C@H]1CCN(CCCCCNC(=O)c2ccccc2)C1
[C] COc1cc(N)c(Cl)cc1C(=O)NC[C@H]1CCN(CCCNC(=O)c2ccccc2)C1
[D] COc1cc(N)c(Cl)cc1C(=O)NCC1CCN(CCCCCNC(=O)c2cn(C)c3ccccc23)CC1
[E] COc1cc(N)c(Cl)cc1C(=O)NCC1CCN(CCCCNC(=O)c2ccc3ccccc3c2)CC1
Please put the entries in order of rising Ki. // list labels; follow requested order
D, A, E, B, C

---

# assayedTarget: 5-HT4 receptor (Cavia porcellus)
# Construct: crude synapse membrane sample was prepared from guinea pig striatum; from tissue; host or cells: guinea pig striatum, crude synaptic membranes
# procedureText: 5-HT4 receptor binding test
# Parameters: species or system guinea pig
reportedEndpoint: pKi
In plain terms, pKi is the concentration in mol/L turned into minus its base-10 logarithm.

Form field: pKi recorded for `COc1cc(N)c(Cl)cc1C(=O)NC[C@H]1CCN(CCCCNC(=O)c2cn(C(C)C)c3ccccc23)C1` with 5-HT4 receptor (Cavia porcellus) (enter value)
8.46
